Each recorded value in this set is attributed to ChEMBL document CHEMBL4765456.

Target: Oxysterols receptor LXR-beta (Homo sapiens, UniProt P55055)
Sequence (P55055 whole entry): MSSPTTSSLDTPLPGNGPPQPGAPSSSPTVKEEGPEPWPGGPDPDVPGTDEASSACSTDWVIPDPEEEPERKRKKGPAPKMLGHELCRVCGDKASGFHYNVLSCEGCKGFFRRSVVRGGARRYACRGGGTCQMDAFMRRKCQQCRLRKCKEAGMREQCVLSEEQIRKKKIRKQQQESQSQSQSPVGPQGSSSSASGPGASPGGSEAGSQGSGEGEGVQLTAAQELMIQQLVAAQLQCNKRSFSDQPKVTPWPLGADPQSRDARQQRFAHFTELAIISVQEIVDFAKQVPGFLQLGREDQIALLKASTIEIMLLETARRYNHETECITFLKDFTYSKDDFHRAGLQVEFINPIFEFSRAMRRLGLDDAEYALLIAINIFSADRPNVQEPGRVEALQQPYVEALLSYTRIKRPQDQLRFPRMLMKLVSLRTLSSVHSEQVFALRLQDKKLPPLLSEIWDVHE
Test: Inverse agonist activity at human LXRbeta transfected in human HEK293T cells co-transfected with pSG5 and pGL3/(DR-4)-c-fos-FF-luc/pCMV/Renilla-luc assessed as receptor transactivation incubated for 20 hrs by dual luciferase reporter gene assay
quantity: IC50

Incoming: Provide measured IC50 value, entry: `CC(C)[C@@H]1N(C(=O)OC(C)(C)C)CC[C@@]12C(=O)N(c1cccc(-c3ccc4ccn(C)c4c3)c1)c1ccccc12`
Outgoing: > 20 µM

* * *

molecular target: Oxysterols receptor LXR-alpha (Homo sapiens, UniProt Q13133); assay: Inverse agonist activity at human LXRalpha transfected in human HEK293T cells co-transfected with pSG5 and pGL3/(DR-4)-c-fos-FF-luc/pCMV/Renilla-luc assessed as receptor transactivation incubated for 20 hrs by dual luciferase reporter gene assay; format: cell-based
Sequence (Q13133 whole entry): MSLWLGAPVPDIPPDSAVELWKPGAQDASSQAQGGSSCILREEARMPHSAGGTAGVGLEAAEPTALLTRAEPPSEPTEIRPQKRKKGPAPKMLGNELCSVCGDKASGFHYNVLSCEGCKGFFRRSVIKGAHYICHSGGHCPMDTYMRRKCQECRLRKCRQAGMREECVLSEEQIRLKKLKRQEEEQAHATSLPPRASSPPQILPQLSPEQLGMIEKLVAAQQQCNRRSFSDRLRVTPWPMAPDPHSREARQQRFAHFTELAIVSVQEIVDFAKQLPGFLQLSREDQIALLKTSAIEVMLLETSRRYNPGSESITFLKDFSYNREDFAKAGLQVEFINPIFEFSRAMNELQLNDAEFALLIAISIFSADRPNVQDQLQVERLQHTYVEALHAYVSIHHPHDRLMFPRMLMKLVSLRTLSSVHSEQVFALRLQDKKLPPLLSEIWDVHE
quantity: IC50

>>> observed_value("CC(C)[C@@H]1N(C(=O)OC(C)(C)C)CC[C@@]12C(=O)N(c1cccc(-c3ccc(C(=O)O)c(S(C)(=O)=O)c3)c1)c1ccccc12")
"Not Active"
>>> observed_value("CC(C)[C@@H]1N(C(=O)OC(C)(C)C)CC[C@@]12C(=O)N(c1cccc(-c3ccc(CO)cc3)c1)c1ccccc12")
"Not Active"
>>> observed_value("CC(C)[C@@H]1N(C(=O)OC(C)(C)C)CC[C@@]12C(=O)N(c1cccc(-c3ccc(CO)c(Cl)c3)c1)c1ccccc12")
"Not Active"
>>> observed_value("CC(C)[C@@H]1N(C(=O)OC(C)(C)C)CC[C@@]12C(=O)N(c1cccc(-c3ccc4ccn(C)c4c3)c1)c1ccccc12")
"Not Active"
